Values from paper PMC9527314

- Target or system: human RANKL trimer (Homo sapiens, UniProt O14788)
- Construct: gene TNFSF11; recombinant human RANKL trimer protein from ACROBiosystems; homotrimer; amine-coupled to CM5 chip
- Sequence (O14788 140-317 limits assumed): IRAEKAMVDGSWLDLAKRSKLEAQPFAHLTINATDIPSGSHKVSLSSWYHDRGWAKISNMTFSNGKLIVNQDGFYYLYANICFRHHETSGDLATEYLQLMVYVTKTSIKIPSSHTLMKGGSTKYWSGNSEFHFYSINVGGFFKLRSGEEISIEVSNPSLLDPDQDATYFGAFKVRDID
- Assay remarks: SPR (Biacore T200), RANKL immobilised on CM5 chip, steady-state fit
- Format: binding
Recorded endpoint: pKd
Convention used: pKd is expressed as -log10 of the molar concentration.

IN: Provide only the value of recorded pKd for `O=P(O)(O)C(O)(Cn1ccnc1)P(=O)(O)O`
OUT: 3.64
